molecular target: T1, HLA-A2/NY-ESO peptide complex presented on cells (human); assay: flow cytometry on peptide-pulsed T2 cells, scFv 100 nM;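 further: scFv binding read as gMFI and normalized to the level of HLA/peptide complex displayed on T2 cells, with homologous 9-mer peptides used to probe specificity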
T1 construct: whole, on cells; also called HLA/NY-ESO; T2 cells supplemented with the NY-ESO peptide
MEASURED_PROPERTY: standardized gMFI
Write the number on its own, no unit after it.

// field: standardized gMFI; key: NYA-2035 (scFv) scFv: GEVQLVESGGGVVQPGRSLTPSCSASGFSIRSYDIHWVRLAPGKGLEWVATISYDGSQKYFADSVKGRFTIFRDESENMVYLQMSGLRVEDTAVYHCARGSSGHYEAFDIWGQGTMVTVSSGGGGSGGGGSGGGGSQSVLTQPPSVSAAPGQKVTISCSGSSSNIGNWKVSWYQQLPGTAPKLLIYDNNKRPSGIPDRFSGSKSGTSATLGITGLQTGDEADYYCGTWDSSLSAPWVFGGGTKVTVLGAAAGAGGDYKDDDDKGAAAHHHHHH ; value = 11.1

// field: standardized gMFI; key: NYA-2044 (scFv, also called NYA-2044 tag adduct) scFv: GEVQLVESGGGLVQPGGSLRLSCAASGFSIRSYDIHWVRLAPGKGLEWVATISYDGSQKYYADSVKGRFTISRDESKNTLYLQMNSLRAEDTAVYHCARGSSGHYEAFDIWGQGTLVTVSSGGGGSGGGGSGGGGSQSVLTQPPSVSAAPGQKVTISCSGSSSNIGNWYVSWYQQLPGTAPKLLIYDNNKRPSGIPDRFSGSKSGTSATLGITGLQTGDEADYYCGTWDSSLSAPWVFGGGTKVTVLGAAAGAGGDYKDDDDKGAAAHHHHHH ; value = 14.3
